Values were extracted from patent US20230202989A1.

system: IL-1β; test: PBMC assay: inhibition of IL-1β release after LPS stimulation (MSD); format: cell-based; details: Homo sapiens, PBMC, 6 h, human PBMCs, 100 ng/ml LPS for 6 hrs, MSD, 96 well plates; read-out: IL1β IC50
Hi! Could you tag entries with IC50 below 500 nM as Fulfilled, and those at or above as Not fulfilled? Much appreciated.

CC(C)c1nn(CC(=O)Nc2ccc3nncn3c2)c(=O)c2ccc(C(C)(C)C)cc12 [X-1048]	Fulfilled
CC(C)c1nn(CC(=O)Nc2ccc3nncn3c2)c(=O)c2ccc(C(F)(F)F)c(C#N)c12 [Final Cpd X170]	Not fulfilled
CCc1nn(CC(=O)N[C@H]2CC[C@H](O)CC2)c(=O)c2ccc(C3CC3)cc12 [Final Cpd 27]	Not fulfilled
CC(C)c1nn(CC(=O)Nc2cn3cnnc3cn2)c(=O)c2ccc(C(F)(F)F)cc12 [Final Cpd X14]	Fulfilled
CC(C)c1nn(CC(=O)Nc2ccc3cnnn3c2)c(=O)c2ccc(C(F)(F)F)cc12 [Final Cpd X101]	Not fulfilled
CC(O)c1nn(CC(=O)Nc2ccc3nncn3c2)c(=O)c2ccc(C(F)(F)F)cc12 (centres unmarked) [Final Cpd X66]	Not fulfilled
CCc1nn(CC(=O)N[C@H]2C[C@@](C)(O)C2)c(=O)c2ccc(C(F)F)cc12 [Final Cpd 17]	Not fulfilled

Would you kindly look at the next entry?
Prompt line: Does the reported IC50 of the following molecule sit strictly below 500 nM? Cc1cnc2ccc(NC(=O)Cn3nc(C(C)C)c4cc(C(F)(F)F)ccc4c3=O)cn12 [Final Cpd X79]
Response line: Not fulfilled

----------
test system: IL-1β; experiment: PBMC assay: inhibition of IL-1β release after LPS stimulation (MSD); format: cell-based; conditions: Homo sapiens, PBMC, 6 h, human PBMCs, 100 ng/ml LPS for 6 hrs, MSD, 96 well plates; read-out: IL1β IC50
pIC50: −log10 of the molar value.
Label scheme for pIC50: lower than 6 is False, 6 and above is True.

CC(C)c1nn(CC(=O)N[C@H]2CN(C3CC3)CC[C@H]2O)c(=O)c2ccc(C(F)(F)F)cc12	True
COC(C)c1ccc2c(=O)n(CC(=O)Nc3ccc4nncn4c3)nc(C(C)C)c2c1 (stereo not shown)	True
COC(C)(C)c1ccc2c(=O)n(CC(=O)Nc3ccc4nncn4c3)nc(C(C)C)c2c1	False
CC(C)c1nn(CC(=O)Nc2ccc3nncn3n2)c(=O)c2ccc(C(C)(C)C)cc12	True
C[C@]1(O)C[C@@H](NC(=O)Cn2nc(C3(F)CC3)c3cc(C(F)(F)F)ccc3c2=O)C1	False
CC(C)c1nn(CC(=O)Nc2ccc3nncn3c2)c(=O)c2ccc(C(C)(F)F)cc12	True

Prompt line: Threshold query (pIC50 >= 6) on CCc1nn(CC(=O)N[C@H]2C[C@@](C)(O)C2)c(=O)c2ccc(N(C)C)cc12
Response line: False

----------
tested on: IL-1β; assay: PBMC assay: inhibition of IL-1β release after LPS stimulation (MSD); format: cell-based; details: Homo sapiens, PBMC, 6 h, human PBMCs, 100 ng/ml LPS for 6 hrs, MSD, 96 well plates; read-out: IL1β IC50
Hi! Could you tag entries with IC50 below 400 nM as True, and those at or above as False? Much appreciated.

Prompt line: Does the reported IC50 of the following molecule sit strictly below 400 nM? CCc1nn(CC(=O)Nc2ccncn2)c(=O)c2ccc(C3CC3)cc12
Response line: False

Prompt line: Does the reported IC50 of the following molecule sit strictly below 400 nM? CCc1nn(CC(=O)Nc2ccncn2)c(=O)c2ccc(C(F)(F)F)cc12
Response line: False

Prompt line: Does the reported IC50 of the following molecule sit strictly below 400 nM? O=C(Cn1nc(C(F)F)c2cc(Br)ccc2c1=O)Nc1ccc2nncn2n1
Response line: True

Prompt line: Does the reported IC50 of the following molecule sit strictly below 400 nM? CC(C)c1nn(CC(=O)Nc2ccc3nncn3n2)c(=O)c2ccc(C3CC3)cc12
Response line: True

Prompt line: Does the reported IC50 of the following molecule sit strictly below 400 nM? CC(C)c1nn(CC(=O)Nc2ccc(=O)n(C)c2)c(=O)c2ccc(C(C)(F)F)cc12
Response line: True

Prompt line: Does the reported IC50 of the following molecule sit strictly below 400 nM? CCc1nn(CC(=O)Nc2ccncn2)c(=O)c2ccc(Br)cc12
Response line: True

Prompt line: Does the reported IC50 of the following molecule sit strictly below 400 nM? CC(C)c1nn(CC(=O)Nc2ccc3cnn(C)c3c2)c(=O)c2ccc(C(F)(F)F)cc12
Response line: False
